Tested on: OVCAR-5 ovarian
Protocol Summary: NCI tumour cell line growth inhibition, 48 h
Recorded GI50 for the following molecules
Measured Property: GI50

Molecule	Study Target	Result
N#Cc1cn(C2OC(CO)C(O)C2O)c2ncnc(N)c12 (stereo not given)	OVCAR-5 ovarian	238 nM
COc1ccc(N=C2CSc3nnc(-c4cc(F)c(Cl)cc4Cl)n3N2)cc1	OVCAR-5 ovarian	1900 nM
COc1ccc2c(c1)[nH]c(=O)c1c3cc(C)c(C)cc3cn21	OVCAR-5 ovarian	56.1 nM
CCOC(=O)c1ccc(NC(=O)N2CC(C)OC(C)C2)cc1 (stereo not given)	OVCAR-5 ovarian	> 100000 nM
O=C(CCCCCCSc1nc(-c2ccccc2)cc(-c2ccc(Cl)cc2)n1)NO	OVCAR-5 ovarian	1560 nM
